Task for the reader: assign each of the following compounds its reported Tumour surface, overall values (Mean).
Tested on: Renca cells (renal cell carcinoma)
Experiment: Effect of the isomers on in vivo tumour growth in mice challenged with Renca cells
Settings: day 14 after tumour inoculation; 260 ng/mouse i.p. on days 6, 7 and 14; s.c. Renca in Balb/c mice
Source text: This assay was made in order to check the effect of each stereoisomer on in vivo tumour growth in mice challenged with Renca cells. Their effect was compared with placebo. […] Mice were observed daily and the tumour size recorded twice a week. […] Results were expressed as single values and/or as the mean±SD or median from each experimental group. […]

I have this compound here, Br.N[C@]1(C[n+]2ccccc2)C[C@@H](C(=O)O)NC1=O.[Br-] (single isomer, unassigned; isomer 3) [isomer 3] , and I need its recorded Tumour surface, overall values (Mean).
7.5 mm^2

I have this compound here, Br.N[C@@]1(C[n+]2ccccc2)C[C@H](C(=O)O)NC1=O.[Br-] (single isomer, unassigned; isomer 2) [isomer 2] , and I need its recorded Tumour surface, overall values (Mean).
14.46 mm^2

I have this compound here, Br.N[C@]1(C[n+]2ccccc2)C[C@H](C(=O)O)NC1=O.[Br-] (single isomer, unassigned; isomer 4) [isomer 4] , and I need its recorded Tumour surface, overall values (Mean).
2.87 mm^2

# input for lookup
I have this compound here, Br.N[C@@]1(C[n+]2ccccc2)C[C@@H](C(=O)O)NC1=O.[Br-] (single isomer, unassigned; isomer 1) [isomer 1] , and I need its recorded Tumour surface, overall values (Mean).
14.1 mm^2

Attribution: patent US20070249678A1
